Reported LC50 values for a set of compounds
- experiment: Toxicity in brine shrimp
- Type: organism-based
- conditions: artemia, in vivo
Expressed in µg/mL, but write only the number.

Consider the worked cases shown below.
INSERT INTO results (compound, measurement) VALUES
  ('CCCCCCCCCC[C@H](O)[C@H]1CC[C@H]([C@H]2CC[C@H]([C@H](O)CCCCCCCCCC[C@@H]3CC(CC(C)=O)C(=O)O3)O2)O1 (stereo partly specified)', 0.003),
  ('C=C1C[C@@]23CC[C@H]4[C@@](C)(CCC[C@]4(C)C(=O)O)[C@@H]2CCC1C3', 0.87),
  ('CCCCCCCCCC[C@H](O)[C@H]1CC[C@H]([C@H]2CC[C@H]([C@H](O)CCCCCCCCCC[C@@H](O)CC3C[C@H](C)OC3=O)O2)O1 (stereo partly specified) [DIHYDROBULLATACIN]', 0.0145),
  ('CCCCCCCCCC[C@H](OC(C)=O)[C@H]1CC[C@H]([C@H]2CC[C@H]([C@@H](CCCCCCCCCC[C@H](CC3=C[C@H](C)OC3=O)OC(C)=O)OC(C)=O)O2)O1 [BULLATACIN TRIACETATE]', 5.7);

[in] Fill in: LC50 of O=C1c2ccccc2-c2c3c(cc4ccnc1c24)OCO3 is ___
[out] 1.1
